The reported numbers originate from patent US10206907B2.

assay notes: Microsomal stability, human liver microsomes
Format: in vitro ADME
run conditions: percentage of compound remaining after 60 minutes, 3 μM compound
observable: Microsomal Stability Human (%)

{"compound": "O=C(NCc1cccnc1)c1ccc(-c2cccc3nc(NC(=O)C4CC4)nn23)cc1", "Microsomal Stability Human (%)": "*** (*** 51-75)"}
{"compound": "NC(=O)c1ccc(NCc2ccc(-c3cccc4nc(NC(=O)C5CC5)nn34)cc2)cc1", "Microsomal Stability Human (%)": "** (** 26-50)"}
{"compound": "O=C(Nc1ccc(-c2cccc3nc(NC(=O)C4CC4)nn23)cc1)c1ccccc1", "Microsomal Stability Human (%)": "*** (*** 51-75)"}
{"compound": "CC(=O)Nc1ccc(COc2ccc(-c3cccc4nc(NC(=O)C5CC5)nn34)cc2)cc1", "Microsomal Stability Human (%)": "** (** 26-50)"}
{"compound": "O=C(Nc1nc2cccc(-c3ccc(OCC4CCC4)cc3)n2n1)C1CC1", "Microsomal Stability Human (%)": "** (** 26-50)"}
{"compound": "Cc1cc(COc2ccc(-c3cccc4nc(NC(=O)C5CC5)nn34)cc2)nn1C", "Microsomal Stability Human (%)": "** (** 26-50)"}
{"compound": "O=C(Nc1nc2cccc(-c3ccc(C(=O)N4CCC(F)CC4)cc3)n2n1)C1CC1", "Microsomal Stability Human (%)": "*** (*** 51-75)"}
{"compound": "O=C(Nc1nc2cccc(-c3ccc(NS(=O)(=O)c4ccc(F)cc4)cc3)n2n1)C1CC1", "Microsomal Stability Human (%)": "**** (**** 76-100)"}
{"compound": "CN(CCc1ccccc1)C(=O)c1ccc(-c2cccc3nc(NC(=O)C4CC4)nn23)cc1", "Microsomal Stability Human (%)": "* (* 0-25)"}
{"compound": "O=C(Nc1nc2cccc(-c3ccc(OC4CCCC4)cc3)n2n1)C1CC1", "Microsomal Stability Human (%)": "* (* 0-25)"}

In: Report Microsomal Stability Human (%) for CC(=O)N(Cc1cccnc1)c1ccc(-c2cccc3nc(NC(=O)C4CC4)nn23)cc1
Out: * (* 0-25)

In: Report Microsomal Stability Human (%) for O=C(Nc1nc2cccc(-c3ccc(NS(=O)(=O)c4cccnc4)cc3)n2n1)C1CC1
Out: **** (**** 76-100)

In: Report Microsomal Stability Human (%) for O=C(Nc1nc2cccc(-c3ccc(-c4cccnc4)cc3)n2n1)C1CC1
Out: **** (**** 76-100)

In: Report Microsomal Stability Human (%) for O=C(Nc1nc2cccc(-c3ccc(C(=O)N4CCC(O)CC4)cc3)n2n1)C1CC1
Out: **** (**** 76-100)

In: Report Microsomal Stability Human (%) for O=C(Nc1nc2cccc(-c3ccc(CN4CCC(F)(F)CC4)cc3)n2n1)C1CC1
Out: ** (** 26-50)

In: Report Microsomal Stability Human (%) for CC1CCCCN1C(=O)c1ccc(-c2cccc3nc(NC(=O)C4CC4)nn23)cc1 (centres unmarked)
Out: ** (** 26-50)

In: Report Microsomal Stability Human (%) for O=C(Nc1nc2cccc(-c3cnn(Cc4ccccc4)c3)n2n1)C1CC1
Out: * (* 0-25)

====

target desc: Recombinant human JAK2 catalytic domain (Homo sapiens (Human), UniProt O60674)
Sequence (O60674 808-1132): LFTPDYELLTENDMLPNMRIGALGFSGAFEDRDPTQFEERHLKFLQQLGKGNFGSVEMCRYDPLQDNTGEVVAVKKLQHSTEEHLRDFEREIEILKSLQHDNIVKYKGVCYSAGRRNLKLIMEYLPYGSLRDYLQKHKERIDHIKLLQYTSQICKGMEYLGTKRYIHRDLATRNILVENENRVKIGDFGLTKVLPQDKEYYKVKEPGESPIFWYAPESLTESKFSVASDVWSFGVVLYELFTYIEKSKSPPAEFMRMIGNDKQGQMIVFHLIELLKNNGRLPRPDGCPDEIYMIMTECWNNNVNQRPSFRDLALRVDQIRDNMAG
assay notes: JAK2 inhibition assay
Type: biochemical
run conditions: semi-quantitative score
observable: IC50

{"compound": "COc1ccc(NCc2ccc(-c3cccc4nc(NC(=O)C5CC5)nn34)cc2)cn1 [Compound 236]", "meas value": "< 100 nM"}

In: Report IC50 for CC1(C)CN(C(=O)c2ccc(-c3cccc4nc(NC(=O)C5CC5)nn34)cc2)C1 [Compound 330]
Out: 101 to 500 nM

In: Report IC50 for O=C(Nc1nc2cccc(-c3ccc(CNC4CCS(=O)(=O)C4)cc3)n2n1)C1CC1 (centres unmarked) [Compound 304]
Out: < 100 nM

In: Report IC50 for COc1c(F)ccc(NCc2ccc(-c3cccc4nc(NC(=O)C5CC5)nn34)cc2)c1F [Compound 245]
Out: < 100 nM

In: Report IC50 for CN(C(=O)c1ccc(-c2cccc3nc(NC(=O)C4CC4)nn23)cc1)C1CCS(=O)(=O)C1 (centres unmarked) [Compound 273]
Out: < 100 nM

In: Report IC50 for CN1CCN(C(=O)NCc2ccc(-c3cccc4nc(NC(=O)C5CC5)nn34)cc2)CC1 [Compound 308]
Out: > 1000 nM

====

target desc: Recombinant human JAK2 catalytic domain (Homo sapiens (Human))
assay notes: JAK2 inhibition assay
Assay type: biochemical
observable: IC50

In: Report value: IC50, system: Recombinant human JAK2 catalytic domain (Homo sapiens (Human)), compound: O=C(Nc1nc2cccc(-c3ccc(OCc4ccccc4)nc3)n2n1)C1CC1
Out: < 100 nM

====

Test system: JAK-STAT signalling in HeLa cells
assay notes: JAK-STAT signalling assay (OSM-triggered pSTAT1(2)-luciferase reporter in HeLa cells)
Format: cell-based
run conditions: Homo sapiens; HeLa cells, OSM-triggered pSTAT1(2)-luciferase reporter; read-out: STAT signalling EC50
Method: HeLa cells were maintained in Dulbecco's Modified Eagle's Medium (DMEM) containing 10% heat inactivated fetal calf serum, 100 U/mL penicillin and 100 μg/mL streptomycin. HeLa cells were used at 70% confluence for transfection. […] 40 μL of cell lysate was used to read β-galactosidase activity by adding 180 μL βGal solution (30 μl ONPG 4 mg/mL+150 μL β-Galactosidase buffer (0.06 M Na2HPO4, 0.04 M NaH2PO4, 1 mM MgCl2)) for 20 min. […]
observable: EC50

In: Report value: EC50, system: JAK-STAT signalling in HeLa cells, compound: CC(C)(C)OC(=O)NC1CCN(Cc2ccc(-c3cccc4nc(NC(=O)C5CC5)nn34)cc2)CC1
Out: > 1 µM

In: Report value: EC50, system: JAK-STAT signalling in HeLa cells, compound: O=C(Nc1nc2cccc(-c3ccc(OCc4ccc(Cl)nc4)cc3)n2n1)C1CC1
Out: 0.101 to 0.5 µM

In: Report value: EC50, system: JAK-STAT signalling in HeLa cells, compound: Cn1cc(-c2ccc(COc3ccc(-c4cccc5nc(NC(=O)C6CC6)nn45)cc3)cn2)cn1
Out: > 1 µM

In: Report value: EC50, system: JAK-STAT signalling in HeLa cells, compound: O=C(Nc1nc2cccc(-c3ccc(Oc4ccccc4)cc3)n2n1)C1CC1
Out: > 1 µM

In: Report value: EC50, system: JAK-STAT signalling in HeLa cells, compound: O=C(Nc1nc2cccc(-c3ccc(OCc4ccccc4)c(F)c3)n2n1)C1CC1
Out: 0.101 to 0.5 µM

====

Measured pIC50 accompanies every entry in the list below.
target desc: Recombinant human JAK3 catalytic domain (Homo sapiens (Human))
Sequence (P52333 781-1124): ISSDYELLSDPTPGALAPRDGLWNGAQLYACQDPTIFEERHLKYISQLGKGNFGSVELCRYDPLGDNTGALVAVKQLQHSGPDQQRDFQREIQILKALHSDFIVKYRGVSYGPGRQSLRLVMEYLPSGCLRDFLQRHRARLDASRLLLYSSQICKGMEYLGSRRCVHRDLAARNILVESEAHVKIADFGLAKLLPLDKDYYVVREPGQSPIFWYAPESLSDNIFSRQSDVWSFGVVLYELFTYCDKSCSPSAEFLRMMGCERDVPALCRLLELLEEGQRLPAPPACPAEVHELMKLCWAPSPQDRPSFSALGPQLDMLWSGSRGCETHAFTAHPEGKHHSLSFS
assay notes: JAK3 inhibition assay
Assay type: biochemical
run conditions: semi-quantitative score
pIC50: −log10 of the molar value.

Here is how some compounds turned out for pIC50.
{"compound": "O=C(N[C@H]1CCN(Cc2ccccc2)C1)c1ccc(-c2cccc3nc(NC(=O)C4CC4)nn23)cc1 [Compound 119]", "target desc": "Recombinant human JAK3 catalytic domain (Homo sapiens (Human))", "pIC50": "< 6.00"}
{"compound": "O=C(Nc1nc2cccc(-c3ccc(OCc4ncon4)cc3)n2n1)C1CC1 [Compound 99]", "target desc": "Recombinant human JAK3 catalytic domain (Homo sapiens (Human))", "pIC50": "6.30 to 7.00"}
{"compound": "Cc1noc(C)c1COc1ccc(-c2cccc3nc(NC(=O)C4CC4)nn23)cc1 [Compound 49]", "target desc": "Recombinant human JAK3 catalytic domain (Homo sapiens (Human))", "pIC50": "< 6.00"}

In: Report pIC50 for O=C(Nc1nc2cccc(-c3ccc(N4CCCCC4)nc3)n2n1)C1CC1 [Compound 3]
Out: < 6.00

In: Report pIC50 for O=C(NCCOc1ccccc1)c1ccc(-c2cccc3nc(NC(=O)C4CC4)nn23)cc1 [Compound 60]
Out: 6.30 to 7.00

In: Report pIC50 for CCCCN(CCCN1CCOCC1)C(=O)c1ccc(-c2cccc3nc(NC(=O)C4CC4)nn23)cc1 [Compound 90]
Out: < 6.00

In: Report pIC50 for O=C(NCCc1ccccc1)c1ccc(-c2cccc3nc(NC(=O)C4CC4)nn23)c(F)c1 [Compound 111]
Out: 6.00 to 6.30

In: Report pIC50 for O=C(Nc1nc2cccc(-c3ccc(CNc4ccon4)cc3)n2n1)C1CC1 [Compound 302]
Out: 6.30 to 7.00

====

target desc: Recombinant human JAK2 catalytic domain (Homo sapiens (Human))
assay notes: JAK2 inhibition assay
Type: biochemical
run conditions: semi-quantitative score
pIC50: −log10 of the molar value.
observable: pIC50

Here is how some compounds turned out for pIC50.
{"compound": "O=C(Nc1nc2cccc(-c3ccc(CN4CCCC(O)C4)cc3)n2n1)C1CC1 (centres unmarked) [Compound 313]", "pIC50": "6.30 to 7.00"}
{"compound": "CC1(C)COCCN1C(=O)c1ccc(-c2cccc3nc(NC(=O)C4CC4)nn23)cc1 [Compound 216]", "pIC50": "6.30 to 7.00"}
{"compound": "N#CC1CN(Cc2ccc(-c3cccc4nc(NC(=O)C5CC5)nn34)cc2)C1 [Compound 303]", "pIC50": "6.30 to 7.00"}

In: Report pIC50 for O=C(Nc1nc2cccc(-c3ccc(OCc4ccccc4)c(F)c3)n2n1)C1CC1 [Compound 15]
Out: > 7.00

In: Report pIC50 for O=C(NCCc1ccccc1)c1ccc(-c2cccc3nc(NC(=O)C4CC4)nn23)c(F)c1 [Compound 111]
Out: 6.30 to 7.00

In: Report pIC50 for CCN(CC)C1CCN(C(=O)c2ccc(-c3cccc4nc(NC(=O)C5CC5)nn34)cc2)C1 (centres unmarked) [Compound 285]
Out: < 6.00
